System: Calu-3
assayText: relative viability EC50 (midpoint between 100% and the lowest measured viability); higher = less toxic
conditionSummary: 72 h
property: relative viability EC50

Observe how each entry below is paired with its result.
molecule	observed
C[C@@H](O)[C@H]1C(=O)N2C(C(=O)O)=C(S[C@@H]3CN[C@H](C(=O)Nc4cccc(C(=O)O)c4)C3)[C@H](C)[C@H]12	> 10 µM
NCCCC[C@H](NC(=O)[C@@H]1CCCN1C(=O)[C@@H]1CSSC[C@H](NC(=O)CNC(=O)CNC(=O)CN)C(=O)N[C@@H](Cc2ccc(O)cc2)C(=O)N[C@@H](Cc2ccccc2)C(=O)N[C@@H](CCC(N)=O)C(=O)N[C@@H](CC(N)=O)C(=O)N1)C(=O)NCC(N)=O	> 10 µM

Would you mind telling me what relative viability EC50 value was observed for `CS(=O)(=O)Nc1ccc(Cc2noc(-c3ccc4[nH]cc(CCN)c4c3)n2)cc1` ?
> 10 µM

Given the entry NC1CCN(c2nc3c(cc2F)c(=O)c(C(=O)O)cn3-c2ccc(F)cc2F)C1 (configuration not stated) , report its measured relative viability EC50.
> 10 µM

Query (molecule): `COC(=O)c1c(-c2cc(OC)c(OC)c(OC)c2)c2ccnc(OCc3ncccn3)c2c(=O)n1Cc1ccnc(C)c1` ; field requested: relative viability EC50
> 10 µM

Would you kindly share the measured relative viability EC50 for CC(C)(C)NCC(O)c1ccc(O)c(CO)c1 (configuration not stated) ?
> 10 µM

Data request, read-out relative viability EC50, for `C[C@H](N)[C@H](O)c1cccc(O)c1`
> 10 µM

----------
Tested on: Calu-3
assayText: cell viability relative to DMSO; higher = less toxic
conditionSummary: 72 h; 1000 nM
property: cell viability (%)
Field format: number, assumed %, no unit text.

compound	observed
N[C@H]1CCN(O)C1=O [HA-966-(S)-(-)]	94.7
CCCCCCCCOc1ccccc1C(=O)Nc1ccc(C(=O)OCC[N+](C)(CC)CC)cc1	96.7
Cc1ccc(S(=O)(=O)N2CCC[C@H]2c2ccc(F)cc2)cc1	98.1

Any idea what cell viability was measured for COc1ccc2[nH]c([S+]([O-])Cc3ncc(C)c(OC)c3C)nc2c1 (stereo not given) ?
104

Requested field: cell viability. Item: CC(=O)OCC(=O)[C@@]1(O)CC[C@H]2[C@@H]3CCC4=CC(=O)CC[C@]4(C)[C@@]3(F)[C@@H](O)C[C@@]21C [FLUDROCORTISONE ACETATE]
85.1

Endpoint output: cell viability of Cc1nn(C)c2c1C(c1ccc(C(F)(F)F)cc1)C(C#N)=C(N)O2 (stereo not given) . Value?
108

If you can, please state the reported cell viability value of `C[C@@H]1COCCN1c1cc(C2([S@](C)(=N)=O)CC2)nc(-c2ccnc3[nH]ccc23)n1` .
92.7

Which cell viability is listed for `CCNC(=O)[C@H]1O[C@@H](n2cnc3c(N)ncnc32)[C@H](O)[C@@H]1O` ?
88.5

// returns reported cell viability for input `CN(C)c1ccc(C(=O)NCCCCCCC(=O)NO)cc1`
55.3

Using the record for `Cc1cc(O)c2c(c1)C(=O)c1cc(O)cc(O)c1C2=O` , report its cell viability.
94.2

----------
Tested on: HepG2
assayText: cell viability relative to DMSO; higher = less toxic
conditionSummary: 72 h; 10000 nM
Readings of cell viability for the listed compounds
Express your answer in %, writing the number without its unit.

compound	cell viability (%)
O=C1COc2nccc(-c3ccccc3F)c2CN1Cc1cc(C(F)(F)F)cc(C(F)(F)F)c1	100
COc1ccc2[nH]c([S+]([O-])Cc3ncc(C)c(OC)c3C)nc2c1 (stereo not drawn)	95.1
Cc1cc(I)ccc1Nc1c(C(=O)NOCC2CC2)cc(F)c(F)c1F	21.1
COc1ccc2cc1Oc1ccc(cc1)C[C@H]1c3c(cc4c(c3Oc3cc5c(cc3OC)CCN(C)[C@@H]5C2)OCO4)CCN1C	93.7
C=CC(C)(C)c1cc(/C=C/C(=O)c2ccc(O)cc2)c(OC)cc1O	78.4
COc1ccc2c(c1)CN(C)CC2c1ccc(Cl)c(Cl)c1 (stereo not drawn)	97.2
C[C@H]1c2cccc(O)c2C(=O)C2=C(O)[C@]3(O)C(=O)C(C(N)=O)=C(O)[C@@H](N(C)C)[C@@H]3[C@@H](O)[C@@H]21	94.8
CC(C)(C#N)c1ccc(N2C(=O)OCc3cnc4ccc(-c5cnc6ccccc6c5)cc4c32)cc1	89.6
Fc1ccc(Cl)cc1-c1nc(Nc2ccncc2)c2nccnc2n1	98.2
N[C@H]1CCN(O)C1=O [HA-966-(S)-(-)]	106

Shift focus to the following entry.
For the compound `N#Cc1c(N)nc(SCc2ncc[nH]2)c(C#N)c1-c1ccc(O)cc1` , what cell viability is on record?
98.6

----------
Test system: Vero E6
assayText: cell viability relative to DMSO; higher = less toxic
conditionSummary: 72 h; 100 nM
Reported cell viability values for a set of molecules
Dear colleague, please return just the value in %, with no unit written.

Worked cases, cell viability given:
molecule	cell viability [%]
OCC(CO)N[C@H]1C[C@](O)(CO)[C@@H](O)[C@H](O)[C@H]1O [voglibose]	94.3
CO[C@@H]1[C@H](O)[C@@H](CO)O[C@H]1n1cnc2c(NC3CCCCC3)ncnc21 [SDZ-WAG-994]	97.1
CC1(N)CCN(c2cnc(-c3cccc(Cl)c3Cl)c(N)n2)CC1 [SHP099]	106

Consider the molecule CNc1ncnc2c1ncn2[C@@H]1O[C@H](CO)[C@@H](O)[C@H]1O [N6-methyladenosine] and give its measured cell viability.
102

----------
Item-by-item account of drug sensitivity score
System: Calu-3
assayText: drug sensitivity score (DSS) for viability; higher = more toxic; extreme values may be limits of the assay
conditionSummary: 72 h
Format: numeric value only, no unit, no commentary.

molecule	drug sensitivity score
CC(C)c1cc2c(cc1S(=O)(=O)O)[C@@]1(C)CCC[C@@](C)(C(=O)O)[C@@H]1CC2	0
CCNC(=O)C[C@@H]1N=C(c2ccc(Cl)cc2)c2cc(OC)ccc2-n2c(C)nnc21	3
CC(=O)OCC(=O)[C@@]1(O)CC[C@H]2[C@@H]3CCC4=CC(=O)CC[C@]4(C)[C@@]3(F)[C@@H](O)C[C@@]21C [FLUDROCORTISONE ACETATE]	0

# lookup: drug sensitivity score of `O=C(O)c1c2ccccc2cc2ccccc12`
0

# get_value(readout='drug sensitivity score', item= `CCOc1cc([C@@H](CS(C)(=O)=O)N2C(=O)c3cccc(NC(C)=O)c3C2=O)ccc1OC` )
0

State the recorded drug sensitivity score for this entry: `CCCCC(=O)OCC(=O)[C@]1(O)Cc2c(O)c3c(c(O)c2[C@@H](O[C@H]2C[C@H](NC(=O)C(F)(F)F)[C@H](O)[C@H](C)O2)C1)C(=O)c1c(OC)cccc1C3=O`
9

# input molecule: `CO[C@@H]1[C@H](O)[C@@H](CO)O[C@H]1n1cnc2c(NC3CCCCC3)ncnc21` ; wanted: its drug sensitivity score
0

----------
Test system: HepG2
assayText: cell viability relative to DMSO; higher = less toxic
conditionSummary: 72 h; 1000 nM
# cell viability values compiled below
Reply with just the number (in %).

Here are 5 molecules together with their reported answers.
molecule	testedOn	cell viability, %
C[C@H]1c2cccc(O)c2C(=O)C2=C(O)[C@]3(O)C(=O)C(C(N)=O)=C(O)[C@@H](N(C)C)[C@@H]3[C@@H](O)[C@@H]21 [doxycycline]	HepG2	108
O[C@@H](COc1cccc2ncccc12)CN1CCN([C@@H]2c3ccccc3[C@@H]3[C@H](c4ccccc42)C3(F)F)CC1 [zosuquidar]	HepG2	92.4
N[C@@]1(C(=O)O)CC[C@H]2[C@H](C(=O)O)[C@H]21 [eglumetad]	HepG2	97.6
C[C@]12CC[C@@H]3c4ccc(OC(=O)c5ccccc5)cc4CC[C@H]3[C@@H]1CC[C@@H]2O [estradiol-benzoate]	HepG2	105
O=[N+]([O-])c1cc(Cl)ccc1S(=O)(=O)c1ccccc1 [BTB1]	HepG2	88.1

For the molecule shown here, C[C@H](NC(=O)C(C)(C)Oc1ccc(C(F)(F)F)cn1)[C@@H](Cc1ccc(Cl)cc1)c1cccc(C#N)c1 [taranabant] , give the reported cell viability.
103

What does the record list as cell viability for N#Cc1ccc(N(Cc2ccc(Br)cc2)n2cnnc2)cc1 [YM-511] ?
96.6

----------
Tested on: A549-ACE2
assayText: drug-induced phospholipidosis relative to tamoxifen; higher = more phospholipidosis
conditionSummary: 10 µM; 72 h
property: drug-induced phospholipidosis
Kindly write the number and append the unit.

molecule	drug-induced phospholipidosis
CCN(CC)CCOC(=O)C1(C2CCCCC2)CCCCC1	2.64%
Cc1ncc(NC(=O)c2ccc(CN3CCN(C)CC3)c(C(F)(F)F)c2)cc1Nc1nccc(-c2cccnc2)n1	84.5%
COc1cccc(CCc2ccccc2OCC[C@@H]2C[C@@H](O)CN2C)c1	98.4%

# query: drug-induced phospholipidosis | item CCOc1ccc(-c2nc(-c3cccc4c3CCC4NCCO)no2)cc1OCC (stereo unspecified) | system: A549-ACE2
106%

Tell me reported drug-induced phospholipidosis for `COc1ccc2cc1Oc1ccc(cc1)C[C@H]1c3c(cc4c(c3Oc3cc5c(cc3OC)CCN(C)[C@@H]5C2)OCO4)CCN1C` , tested with A549-ACE2.
32.4%

Tell me reported drug-induced phospholipidosis for `O=C(Nc1ccc(-c2ccncc2)cc1)N[C@H](CO)c1ccccc1` , tested with A549-ACE2.
-0.186%
